Hey, just so you know, these numbers are from patent US20230203029A1.

# Target Of Assay: recombinant human MERTK expressed in live cells (HEK 293, MERTK-Nanoluc fusion vector) (Homo sapiens)
# Construct: host or cells: HEK 293
# Sequence (Q12866 21-999): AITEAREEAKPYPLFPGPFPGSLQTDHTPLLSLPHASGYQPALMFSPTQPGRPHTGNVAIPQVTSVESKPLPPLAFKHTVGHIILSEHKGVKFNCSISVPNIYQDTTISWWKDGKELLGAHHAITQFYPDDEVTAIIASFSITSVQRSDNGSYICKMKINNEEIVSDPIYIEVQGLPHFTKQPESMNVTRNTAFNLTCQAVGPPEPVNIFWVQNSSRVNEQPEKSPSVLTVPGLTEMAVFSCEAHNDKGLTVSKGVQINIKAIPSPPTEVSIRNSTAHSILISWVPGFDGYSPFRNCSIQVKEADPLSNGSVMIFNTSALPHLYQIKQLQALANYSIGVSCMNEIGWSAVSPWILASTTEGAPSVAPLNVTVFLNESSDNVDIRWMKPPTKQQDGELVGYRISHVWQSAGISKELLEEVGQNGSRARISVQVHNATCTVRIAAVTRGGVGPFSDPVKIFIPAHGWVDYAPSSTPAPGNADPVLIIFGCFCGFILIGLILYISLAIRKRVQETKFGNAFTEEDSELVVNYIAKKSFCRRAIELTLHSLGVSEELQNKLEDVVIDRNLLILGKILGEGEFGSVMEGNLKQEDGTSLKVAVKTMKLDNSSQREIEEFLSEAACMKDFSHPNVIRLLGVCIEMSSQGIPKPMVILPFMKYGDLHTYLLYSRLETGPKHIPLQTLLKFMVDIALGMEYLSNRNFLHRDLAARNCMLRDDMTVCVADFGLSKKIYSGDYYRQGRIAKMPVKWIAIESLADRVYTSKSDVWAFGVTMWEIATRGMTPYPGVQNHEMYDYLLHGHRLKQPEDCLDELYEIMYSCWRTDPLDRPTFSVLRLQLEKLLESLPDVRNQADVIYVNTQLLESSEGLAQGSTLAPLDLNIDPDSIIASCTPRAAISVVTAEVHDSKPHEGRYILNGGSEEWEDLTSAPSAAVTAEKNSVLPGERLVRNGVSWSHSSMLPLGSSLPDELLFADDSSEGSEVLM
# Experiment Notes: Assay 2 MERTK cellular target engagement (NanoBRET TE) assay
# Assay type: cell-based
# Condition Description: HEK 293 cells, tracer K9, 2 h at 37° C.; read-out: Assay 2 Cell TE MER IC50
pIC50 listing for selected compounds.
Interpret pIC50 as the negative base-10 log of the concentration measured in mol/L.

Below: 10 compounds and their reported pIC50.
{"columns": ["Molecule", "Measured Parameter", "Readout Value"],
 "data": [
  ["O=C(NOCCO)c1cc2c(Nc3ccc(NC(=O)c4cccn(-c5ccccc5)c4=O)cc3)ccnc2cn1", "pIC50", 6.87],
  ["CN1CCC(NC(=O)c2cc3c(Oc4ccc(NC(=O)c5cn(C6CC6)c(=O)n(-c6ccc(F)cc6)c5=O)cc4)ccnc3cn2)CC1", "pIC50", 6.88],
  ["Cn1cc(-c2cc3c(Nc4ccc(NC(=O)c5cccn(-c6ccccc6)c5=O)cc4)ccnc3cn2)cn1", "pIC50", 5.54],
  ["O=C(Nc1ccc(Oc2ccnc3cnc(N4CCNCC4)cc23)cn1)c1cccn(-c2ccccc2)c1=O", "pIC50", 7.09],
  ["O=C(N[C@H]1CC[C@H](O)CC1)c1cc2c(Nc3ccc(NC(=O)c4cccn(-c5ccccc5)c4=O)cc3)ccnc2cn1", "pIC50", 7.02],
  ["CN1CCC(NC(=O)c2cc3c(Oc4ccc(NC(=O)c5cccn(-c6ccccc6)c5=O)cc4)ccnc3cn2)CC1", "pIC50", 6.96],
  ["CC(C)n1cc(C(=O)Nc2ccc(Nc3ccnc4cnc(N5CCNCC5)cc34)cc2)c(=O)n(-c2ccc(F)cc2)c1=O", "pIC50", 5.76],
  ["CC(C)n1cc(C(=O)Nc2ccc(Oc3ccnc4cnc(N5CCNCC5)cc34)cc2)c(=O)c(-c2ccc(F)cc2)c1", "pIC50", 8.17],
  ["CN1CCC(NC(=O)c2cc3c(Oc4ccc(NC(=O)c5cccn(-c6ccccc6)c5=O)cc4F)ccnc3cn2)CC1", "pIC50", 7.13],
  ["CC(C)n1cc(C(=O)Nc2ccc(Oc3ccnc4cnc(N5CCNCC5)cc34)cc2)c(=O)n(-c2ccc(F)cn2)c1=O", "pIC50", 7.34]
]}

In: Record request: pIC50 value, item `CN1CCC(n2cc(-c3cc4c(Nc5ccc(NC(=O)c6cccn(-c7ccccc7)c6=O)cc5)ccnc4cn3)cn2)CC1`
Out: 6.88

In: Which pIC50 reading was recorded for the compound `CN1CCC(NC(=O)c2cc3c(Oc4ccc(NC(=O)c5cccn(-c6ccccc6)c5=O)nc4)ccnc3cn2)CC1` ?
Out: 7.02

In: Can you share its pIC50? I mean this compound: `CC(C)n1cc(C(=O)Nc2ccc(Nc3ccnc4cnc(N5CCNCC5)cc34)cc2)c(=O)n(-c2ccccc2)c1=O`
Out: 6.59

In: What value of measured pIC50 is listed for `CN1CCC(NC(=O)c2cc3c(Oc4ccc(NC(=O)c5cn(C)cc(-c6ccc(F)cc6)c5=O)cc4)ccnc3cn2)CC1` ?
Out: 7.38
